Tested on: NQO1
method description: NQO1 expression induction test in mouse kidney (single administration)
Format: in vivo
recorded conditions: Mus musculus, po, 6 h, Dose 20 mg/kg, BALB/c mouse kidney, 6 hours after administration, ratio to control group
Consider the following molecules; for each one, report its fold induction at 20 mg/kg.

Query string: Give the measured fold induction at 20 mg/kg of CC[C@@H]1CN(Cc2cccc(C(c3ccc4c(nnn4C)c3C)C(C)(C)C(=O)O)c2)Cc2cc3ncccc3cc2O1 (stereo partly drawn) .
Result string: 3 to 6

Query string: Item: CC[C@@H]1CN(Cc2cc(C(c3ccc4c(nnn4C)c3C)C(C)(C)C(=O)O)ccc2C)Cc2cc3nccc(Cl)c3cc2O1 (stereo partly drawn)
Result string: 3 to 6

Query string: Try this molecule too: CC[C@@H]1CN(Cc2cc(C(c3ccc4c(nnn4C)c3C)C(C)(C)C(=O)O)ccc2C)Cc2cc3c(cnn3C)cc2O1 (stereo partly drawn)
Result string: 3 to 6

Query string: Would you mind doing CC[C@@H]1CN(Cc2cc(C(c3ccc4c(nnn4C)c3C)C(C)(C)C(=O)O)ccc2C)Cc2cc3c(cc2O1)SCC3 (stereo partly drawn) as well?
Result string: > 6

Query string: Request: CC[C@@H]1CN(Cc2cc(C(c3ccc4c(nnn4C)c3C)C(C)(C)C(=O)O)ccc2Cl)Cc2cc3ncccc3cc2O1 (stereo partly drawn)
Result string: > 6

Query string: Here is the next molecule: CCCC1CN(Cc2cc(C(c3ccc4c(nnn4C)c3C)C(C)(C)C(=O)O)ccc2C)Cc2cc3ncccc3cc2O1 (stereo not drawn)
Result string: > 6

---

Test system: NQO1
method description: NQO1 expression induction test in mouse kidney (single administration)
Format: in vivo
recorded conditions: Mus musculus, po, 6 h, Dose 20 mg/kg, BALB/c mouse kidney, 6 hours after administration, ratio to control group
Kindly state fold induction at 20 mg/kg for each of the entries shown.

Query string: Record CC[C@@H]1CN(Cc2cc(C(c3ccc4c(nnn4C)c3C)C(C)(C)C(=O)O)ccc2C)Cc2cc(Cl)c3ccccc3c2O1 (stereo partly shown) [Example 67-(b)] : what is its fold induction at 20 mg/kg with NQO1?
Result string: ≤ 3

Query string: Let us now turn to CC[C@@H]1CN(Cc2cc(C(c3ccc4c(nnn4C)c3C)C3(C(=O)O)CCCC3)ccc2C)Cc2cc3ncccc3cc2O1 (stereo partly shown) [Example 83-(b)]
Result string: > 6

Query string: How about this compound: CC[C@@H]1CN(Cc2cc(C(c3ccc4c(nnn4C)c3C)C(C)(C)C(=O)O)ccc2C)Cc2cc3nn(C)cc3cc2O1 (stereo partly shown) [Example 66-(b)]
Result string: > 6

Query string: # repeat for Cc1ccc(C(c2ccc3c(nnn3C)c2C)C(C)(C)C(=O)O)cc1CN1Cc2cc3ncccc3cc2OC2(CC2)C1 (stereo not shown) [Example 76-(b)]
Result string: > 6

Query string: Now try CC[C@@H]1CN(Cc2cc(C(c3ccc4c(nnn4C)c3C)C(C)(C)C(=O)O)ccc2C)Cc2cc3nccc(C)c3cc2O1 (stereo partly shown) [Example 71-(b)] .
Result string: > 6

Query string: Also check CC[C@@H]1CN(Cc2cc(C(c3ccc4c(c3)nnn4C)C(C)(C)C(=O)O)ccc2C)Cc2cc3ncccc3cc2O1 (stereo partly shown) [Example 82-(b)]
Result string: > 6

Query string: Similarly, CC[C@@H]1CN(Cc2cc(C(c3ccc4c(nnn4C)c3C)C(C)(C)C(=O)O)ccc2C)Cc2cc3c(cc2O1)S(=O)(=O)CC3 (stereo partly shown) [Example 74-(b)] ?
Result string: 3 to 6

---

Could you please report measured fold induction at 20 mg/kg for the items listed next?
System: NQO1
method description: NQO1 expression induction test in mouse kidney (single administration)
Assay type: in vivo
recorded conditions: Mus musculus, po, 6 h, Dose 20 mg/kg, BALB/c mouse kidney, 6 hours after administration, ratio to control group

Query string: So what fold induction at 20 mg/kg did CC[C@@H]1CN(Cc2cc(C(c3ccc4c(nnn4C)c3C)C(C)(C)C(=O)O)ccc2C)Cc2cc3nccc(OC)c3cc2O1 (stereo partly drawn) get with NQO1?
Result string: > 6

Query string: Next compound: CC[C@@H]1CN(Cc2cc(C(c3ccc4c(nnn4C)c3C)C(C)(C)C(=O)O)ccc2OC)Cc2cc3ncccc3cc2O1 (stereo partly drawn)
Result string: 3 to 6

Query string: Same lookup for Cc1ccc(C(c2ccc3c(nnn3C)c2C)C(C)(C)C(=O)O)cc1CN1Cc2cc3ncccc3cc2O[C@H](C)C1 (stereo partly drawn) , please.
Result string: > 6

Query string: Could you do the same for CC[C@@H]1CN(Cc2cc(C(c3ccc4c(nnn4C)c3C)C(C)(C)C(=O)O)ccc2C)Cc2cc3ccsc3cc2O1 (stereo partly drawn) , please?
Result string: ≤ 3

Query string: And CC[C@@H]1CN(Cc2cc(C(c3ccc4c(nnn4C)c3C)C3(C(=O)O)CCC3)ccc2C)Cc2cc3ncccc3cc2O1 (stereo partly drawn) ?
Result string: > 6

Query string: Let us now turn to CC[C@@H]1CN(Cc2cc(C(c3ccc4c(nnn4C)c3C)C(C)(C)C(=O)O)ccc2C)Cc2cc3c(Cl)cccc3cc2O1 (stereo partly drawn)
Result string: 3 to 6
